Overview of recorded growth for various compounds
# Test system: T-47D breast
# testProtocol: NCI-60 one-dose screen, 48 h (100 = growth as untreated, 0 = no growth, -100 = all killed)
# runConditions: 10 µM unless noted
Compounds without any hit were thinned out: in the full panel of roughly 83,000, 20% have a hit.
Write the value in % as a bare number.

Some solved cases for reference:
Consider the compound C=C(C(N)=O)C(N)C(=O)O (configuration not stated) and give its measured growth.
106

Given O=C1C=CC(O)=CC1=P(c1ccccc1)(c1ccccc1)c1ccccc1 , state its recorded growth.
96.3

For the compound shown here, CCCCCCCCc1cc(Cl)c(O)c(Cl)c1 , give the reported growth.
101

// query growth value for entry Cc1nnc(N/N=C/c2ccc([N+](=O)[O-])o2)[nH]c1=O
-6.92

---
Quick check: growth of CN(C)c1ccc(/C=C/c2cc[n+](C)c(/C=C/c3ccc(N(C)C)cc3)c2)cc1 ?
-2.17

Quick one: growth for O=C1C(=O)c2cc([N+](=O)[O-])ccc2-c2ccccc21 ?
-35.6

---

# Tested on: 786-0 renal
# testProtocol: NCI-60 one-dose screen, 48 h (100 = growth as untreated, 0 = no growth, -100 = all killed)
# runConditions: 10 µM unless noted
Compounds without any hit were thinned out: in the full panel of roughly 83,000, 20% have a hit.
Response key: 1.0 means growth >= 70%; 0.0 means growth < 70%.

API: above_or_equal(metric=growth, cutoff=70%) for item CC(=O)c1ccc2c(c1)CCc1ccccc1-2
1.0

Would you say O=C(/C=C/c1ccccc1)c1ccccc1O shows growth at minimum 70%?
1.0

Tell me whether growth is at least 70% here: CCOc1cc(F)c([N+](=O)[O-])cc1[N+](=O)[O-]
0.0

Say whether C/C(=N/NC(N)=S)c1ccc(C)cc1 shows growth of 70% or more.
1.0

Is growth at least 70%? Consider Nc1ccc(-c2ccc(N)c(S(=O)(=O)O)c2)cc1S(=O)(=O)O
1.0

---

# Test system: HCT-116 colon
# testProtocol: NCI-60 one-dose screen, 48 h (100 = growth as untreated, 0 = no growth, -100 = all killed)
# runConditions: 10 µM unless noted
This is part of a sample that, as a whole, favours compounds with a hit. Of some 83,000 tested, about 20% had one in any assay.
compounds and their reported growth
Lab book: enter the figure in %, no units written.

Known results for compounds:
Recorded growth of Oc1ccc2c(c1)CCc1ccccc1-2 , please.
97.7

For O=C1C=Cc2ccccc2/C1=C/c1nc(-c2ccccc2)oc1O , what is its reported growth?
81.5

Recorded growth for Fc1ccc(NCCS)cc1 , please?
111

Data request, read-out growth, for CN=C(N)N/N=C(\c1ccccc1)c1ccc(Br)cc1
8.58

I am curious: what growth value has been reported for Cc1cc(C)c([I+]c2c(C)cc(C)cc2C)c(C)c1 ?
-87.1

GET /values?readout=growth&item= c1ccc(-c2cc3cc4ccccc4cn3c2)cc1
88

Reported growth, compound COc1ccc(C(Cn2ccnc2)Sc2ccc(Cl)c(Cl)c2)cc1 (configuration not stated) : ____
48.5

// query growth value for entry O=C(CCl)N(c1ccccc1)c1ccccc1
111

Continuing:
Could you tell me which growth is on file for CCC(C)(O)Cc1ccc(Cl)cc1 (configuration not stated) ?
97.7

growth for CC12CCC(O)CC1=CCC1C2CCC2(C)C3=NN=CC3CC12 (configuration not stated) ?
108

What measured growth goes with CCCCCCCCCCCCCCCc1ccc(C(=O)C[n+]2ccccc2)cc1 ?
-97.7

Recorded growth for NC1=C(Br)C(=O)c2ncccc2C1=O , please?
-46.4

Could you tell me which growth is on file for S=c1[nH]c2cc(Cl)ccc2s1 ?
96.6

Given the compound CCSc1nc2ccccc2o1 , what is its reported growth?
111

Report growth for N#CC(=C1SCS1)[N+](=O)[O-] please.
35.8

Please look up its growth: Cc1cc(I)nc2ccccc12
106

May I ask what growth has been recorded for CC(C)N=C(N)/N=C(\N)Nc1ccc2ccc3ccccc3c2c1 ?
3.26

Would you kindly share the measured growth for CCCCCCCCCCCCCCCCCC[S+](C)CC (configuration not stated) ?
27.8

Consider the compound shown here: O=C1/C(=C\c2ccc([N+](=O)[O-])cc2)CS(=O)(=O)C/C1=C/c1ccc([N+](=O)[O-])cc1 What is its recorded growth?
-100

State the recorded growth for this entry: O=C(C[P+](c1ccccc1)(c1ccccc1)c1ccccc1)c1ccccc1
76.8

---

# System: SF-268 CNS
# testProtocol: NCI-60 one-dose screen, 48 h
# runConditions: 10 µM unless noted
About 83,000 compounds went through this panel and 20% of them were active in at least one assay; those are over-represented in the sample as a whole. The source made the active and inactive calls. How the source made its calls: active means growth percent below 10; inactive means the rest. *1 amine or outer side, *2 acyl side, *3 side chain or, on linkers, in order; H or OH if unused. Where a SMILES comes first, the peptide text is derived from it. [ ]: non-standard residue; d: D form. The star is where a group is joined. X5 = CCC(=O)CC1CC(C)CC(C(=O)[*:2])N1[*:1]; X4 = CCCCCCCCC(C)C(=O)*; Aib = CC(C)(N)C(=O)O; X6 = CC(CN(C)CCO)N*
API: response.call in active, inactive

For orientation, consider the following solved cases.
Check the results log: what was the call for CCOc1ccc2c(c1)/C(=C\C=C\C1CC(C)C3CC(OCC)CCC3N1CC)CC(C)N2CC (configuration not stated) ?
inactive

Hi, do you know how CCCCCCCCC(C)C(=O)N1CCCC1C(=O)N1C(CC(=O)CC)CC(C)CC1C(=O)NC(C)C(=O)NC(C)(C)C(=O)NC(C)(C)C(=O)NC(C(=O)NC(C)C(=O)NC(C)(C)C(=O)NC(C)(C)C(=O)NC(C)CN(C)CCO)C(C)CC (configuration not stated) (X4-P[X5]A[Aib][Aib]IA[Aib][Aib]-X6; configuration not given here) came out in this test?
active

Others:
Kindly provide the recorded test outcome for the following compound: Nc1ccc(-c2ccc(N)c(S(=O)(=O)O)c2)cc1S(=O)(=O)O
inactive

What call does the record list for CCOC(=O)c1[nH]c(C#N)c(C(=O)OCC)c1C ?
inactive

Hi, sorry to bother you, what did the test record for CN(C)CCN(C)CC(C)(C)C(=O)/C=C/c1ccc(Cl)c(Cl)c1 ?
active

Call for entry COc1cc2c(c(OC)c1OC)-c1ccc(NCc3ccccc3)c(=O)cc1[C@@H](NC(C)=O)CC2 :
inactive

Give the logged outcome of this assay for the following compound: COc1cc(NCc2ccc3nc(N)nc(N)c3c2C)cc(OC)c1OC (tested in a mixture with another compound)
inactive

Lab log entry: CC[n+]1ccc(Nc2ccc(NC(=O)c3ccc(Nc4cc[n+](CC)c5ccc([N+](=O)[O-])cc45)cc3)cc2)cc1 — outcome as called in the assay?
inactive

// outcome(item) with item = CCCCCCCCCCCCCCCc1ccc(C(=O)C[n+]2ccccc2)cc1
active

---

# System: NCI-H226 lung
# testProtocol: NCI-60 one-dose screen, 48 h
# runConditions: 10 µM unless noted
# Description: Growth inhibition of the NCI-H226 human Non-Small Cell Lung tumor cell line is measured as a screen for anti-cancer activity. Cells are grown in 96 well plates and exposed to the test compound for 48 hours. Compounds are tested at a single concentration, which is 10^-5 M for most compounds. The reported endpoint is percent growth (GI% or GIPRCNT), where numbers from 0 - 100% represent growth inhibition, and numbers from -100% - 0 represent cell death. […]
About 83,000 compounds went through this panel and 20% of them were active in at least one assay; those are over-represented in the sample as a whole. The source made the active and inactive calls. How the source made its calls: active means growth percent below 10; inactive means the rest.
Your answer must be one of the following: Y = active, N = inactive

Observe how each entry below is paired with its result.
Please indicate how the test categorized CCCc1cc(=O)oc2c3c(c4c(c12)OC(C)(C)CC4)OC(C)[C@H](C)[C@@H]3O (stereo partly drawn) .
N

Which outcome was assigned to CCOC(=O)c1c(C)[nH]c2ccc(O)cc12 in this test?
N

Short answer needed: outcome of this test for S=C1SCN(Cc2cccs2)CN1Cc1cccs1 ?
N

How was CN(C)CCSC1=Nc2ccc(Cl)cc2C(c2ccccc2Cl)N(C)C1 (stereo not drawn) classified in this test?
N

State the result this test recorded for COc1cccc2c1C(=O)c1c(O)c3c(c(O)c1C2=O)C[C@@](O)(C(=O)CO)C[C@@H]3OC1CC(OC(C)=O)C(OC(C)=O)C(C)O1 (stereo partly drawn) .
Y

// next entry
Record request — test call for COc1ccc2c(c1OC)OCC(CN(C)C)C2=O (stereo not drawn)
N

---

# Tested on: SW-620 colon
# testProtocol: NCI-60 one-dose screen, 48 h (100 = growth as untreated, 0 = no growth, -100 = all killed)
# runConditions: 10 µM unless noted
About 83,000 compounds went through this panel and 20% of them were active in at least one assay; those are over-represented in the sample as a whole. The source made the active and inactive calls. How the source made its calls: active means growth percent below 10; inactive means the rest.
# growth annotations

Here is how some compounds turned out for growth.
If you can, please state the reported growth value of Cc1ccc(NC2=CC(=O)C(=O)c3ccccc32)cc1 .
-19.6% (active)

# query: growth of entry CCOC(=O)NC(/C=C/c1ccccc1)NC(=O)OCC
100% (inactive)

Given the entry Cc1cc(C(=C2C=CC(=Nc3ccccc3)C=C2)c2ccc(Nc3ccccc3)cc2)ccc1N , report its measured growth.
-70.4% (active)

Next:
Could you share which growth value was measured for OC(Cc1cc(CC(O)(C(F)(F)F)C(F)(F)F)nc(CC(O)(C(F)(F)F)C(F)(F)F)c1)(C(F)(F)F)C(F)(F)F ?
14.6% (inactive)

Which growth is reported for this compound? CN(C)CCSC1=Nc2ccc(Cl)cc2C(c2ccccc2Cl)N(C)C1 (stereo not given)
87.4% (inactive)

For the compound CC(=O)N1CC(=O)NC1=S , what growth is on record?
102% (inactive)

Any idea what its growth is? The compound is CC(C)Nc1ccc(Nc2ccc(NC(C)C)cc2)cc1
47.9% (inactive)

Query (compound): O=C(O)c1ccc2c(c1)C(=O)c1ccccc1C2=O ; field requested: growth
97% (inactive)

Would you kindly share the measured growth for Cc1cc(C(N)=O)cc(C)c1C(=O)OCCCl ?
103% (inactive)

What value of growth has been recorded for this entry: CCCCCCCCCCCCCCCC[N+]1(C)CCCC1c1cccnc1 (stereo not given)
53.2% (inactive)

Value lookup for growth; key = CCc1cccc(CC)c1N1C(=O)C=CC1=O
108% (inactive)

Fill in the blank: the reported growth of Cc1cc(C(=O)c2ccc(Cl)cc2)ccc1O is ____.
98% (inactive)

Consider the compound shown here: CC(/C=N/NC(N)=S)Cc1ccc(C(C)C)cc1 (stereo not given) What is its recorded growth?
63.5% (inactive)

Which growth reading was recorded for the compound CCN(CC)CC(O)c1cc(-c2ccc(Cl)cc2)nc2cc(Cl)ccc12 (stereo not given) ?
31.5% (inactive)

Any idea what growth was measured for Cc1nc([N+](=O)[O-])c(Sc2nncc(-c3ccccc3)n2)n1C ?
77.1% (inactive)

Find the recorded growth belonging to COC(=O)c1cc([N+](=O)[O-])cc([N+](=O)[O-])c1Cl and report it.
31.7% (inactive)

Dear colleague, I am looking for the recorded growth of the following compound: CN(C)CCN(C)CC(C)(C)C(=O)/C=C/c1ccc(Cl)c(Cl)c1
-81.1% [100 µM] (active)

Entry OCCOSCCO has what growth?
105% (inactive)

Look up growth for this compound: NC(=S)N/N=C\c1nccc2c(C(F)(F)F)cccc12
29.8% (inactive)

Can you look up the measured growth of Clc1ccccc1C(c1ccccc1)(c1ccccc1)n1ccnc1 for me?
43.6% (inactive)

Requested read-out: growth. Entry: CCC(C)(O)Cc1ccc(Cl)cc1 (stereo not given)
99.4% (inactive)

Which growth reading was recorded for the compound c1ccc(-c2cccc(-c3ccccn3)n2)nc1 ?
29.6% (inactive)

Given the entry c1ccc2sc(SSN3CC4CCC(CC4)C3)nc2c1 , report its measured growth.
110% (inactive)

Give the measured growth of CN=C(N)N/N=C(\C)c1ccc2c(c1)Cc1ccccc1-2 .
-88.9% (active)

Bench note: what growth did CCOc1ccc(C(CN2CCOCC2)C(C)=O)cc1OC (stereo not given) show?
60% (inactive)
